protocol.text: in vitro
Format: in vitro ADME
condition.summary: human, plasma
measure: fraction unbound
Answer with a number only.

The value of fraction unbound measured for the compound CC(=O)CC(c1ccccc1)c1c(O)c2ccccc2oc1=O (stereo not shown) [warfarin] turned out to be 0.003

The value of fraction unbound measured for the compound C[C@H]1[C@H](OC(=O)CCC(=O)O)O[C@@H]2O[C@@]3(C)CC[C@H]4[C@H](C)CC[C@@H]1[C@@]24OO3 [artesunate] turned out to be 0.233

The value of fraction unbound measured for the compound C[C@H]1[C@@H](O)OC2O[C@@]3(C)CC[C@H]4[C@H](C)CC[C@@H]1[C@@]24OO3 (stereo in doubt) [DHA] turned out to be 0.108

The value of fraction unbound measured for the compound C[C@@H]1CC[C@H]2[C@@H](C)C(OC(=O)N3CC4(CCNC4=O)C3)O[C@H]3O[C@@]4(C)CC[C@@H]1[C@]32OO4 (stereo partly shown) [PT-30] turned out to be 0.455

* * *

protocol.text: Intravenous and oral pharmacokinetics in mice
Type: in vivo
condition.summary: PO, male C57BL/6J mice, plasma
Exercise: for every item that follows, state its recorded PO AUC0-last.
Dear colleague, please return just the value in ng·h/mL, with no unit written.

The value of PO AUC0-last measured for the compound CC1CCC2C(C)C(OC(=O)N3CC(C)(O)C3)OC3OC4(C)CCC1C32OO4 (stereo not shown) [PT-14] turned out to be 20500

The value of PO AUC0-last measured for the compound CC1CCC2C(C)C(OC(=O)N3CC(C)(C(N)=O)C3)OC3OC4(C)CCC1C32OO4 (stereo not shown) [PT-27] turned out to be 14400

The value of PO AUC0-last measured for the compound CC1CCC2C(C)C(OC(=O)N3CC(C)(C(=O)N(C)C)C3)OC3OC4(C)CCC1C32OO4 (stereo not shown) [PT-29] turned out to be 6800

The value of PO AUC0-last measured for the compound C[C@H]1[C@@H](OC(=O)C(C)(C)CO)O[C@@H]2O[C@@]3(C)CC[C@H]4[C@H](C)CC[C@@H]1[C@@]24OO3 [PT-2, DHA 3-hydroxy-2,2-dimethylpropanoate] turned out to be 3200

* * *

protocol.text: Intravenous and oral pharmacokinetics in mice
Type: in vivo
condition.summary: PO, male C57BL/6J mice, plasma
Quick rule: PO T1/2 of at least 40 min means True, below that means False.

Entry CC1CCC2C(C)C(OC(=O)N(C)CCO)OC3OC4(C)CCC1C32OO4 (stereo not shown) [PT-20, DHA (2-hydroxyethyl)(methyl)carbamate] : is its PO T1/2 no less than 40 min?
False

Entry CC1CCC2C(C)C(OC(=O)N3CC(O)C3)OC3OC4(C)CCC1C32OO4 (stereo not shown) [PT-13, DHA 3-hydroxyazetidine-1-carboxylate] : is its PO T1/2 no less than 40 min?
True

Entry CNC(=O)C1(C)CN(C(=O)O[C@H]2O[C@@H]3O[C@@]4(C)CC[C@H]5[C@H](C)CC[C@@H]([C@H]2C)[C@@]35OO4)C1 : is its PO T1/2 no less than 40 min?
False

Entry CC1CCC2C(C)C(OC(=O)N3CC(C)(C(=O)O)C3)OC3OC4(C)CCC1C32OO4 (stereo not shown) : is its PO T1/2 no less than 40 min?
True

Entry CC1CCC2C(C)C(OC(=O)N3CC(C)(C(=O)N(C)C)C3)OC3OC4(C)CCC1C32OO4 (stereo not shown) : is its PO T1/2 no less than 40 min?
True

Entry CC(CO)C(=O)OC1OC2OC3(C)CCC4C(C)CCC(C1C)C24OO3 (stereo not shown) [PT-1, DHA 3-hydroxy-2-methylpropionate] : is its PO T1/2 no less than 40 min?
False

Entry CC1CCC2C(C)C(OC(=O)N3CC(C)(C(N)=O)C3)OC3OC4(C)CCC1C32OO4 (stereo not shown) : is its PO T1/2 no less than 40 min?
True

Entry CC1CCC2C(C)C(OC(=O)CC(C)(C)O)OC3OC4(C)CCC1C32OO4 (stereo not shown) [PT-4, DHA 3-hydroxy-3-methylbutanoate] : is its PO T1/2 no less than 40 min?
False

Entry CC1CCC2C(C)C(OC(=O)N3CC(C)(N)C3)OC3OC4(C)CCC1C32OO4 (stereo not shown) : is its PO T1/2 no less than 40 min?
True

* * *

protocol.text: Intravenous and oral pharmacokinetics in mice
Format: in vivo
condition.summary: mouse; PO, male C57BL/6J mice, plasma; read-out: PO AUC0-last
measure: AUC(0-t) (ng·h/mL)
Dear colleague, please return just the value in ng·h/mL, with no unit written.

The value of AUC(0-t) measured for the compound C[C@@H]1CC[C@H]2[C@@H](C)C(OC(=O)N3CC4(CCNC4=O)C3)O[C@H]3O[C@@]4(C)CC[C@@H]1[C@]32OO4 (stereo partly shown) turned out to be 40900

* * *

Exercise: for every item that follows, state its recorded fraction unbound.
protocol.text: in vitro
Format: in vitro ADME
condition.summary: mouse, plasma
Answer with a number only.

The value of fraction unbound measured for the molecule C[C@H]1[C@H](OC(=O)CCC(=O)O)O[C@@H]2O[C@@]3(C)CC[C@H]4[C@H](C)CC[C@@H]1[C@@]24OO3 [artesunate] turned out to be 0.278

The value of fraction unbound measured for the molecule C[C@H]1[C@@H](O)OC2O[C@@]3(C)CC[C@H]4[C@H](C)CC[C@@H]1[C@@]24OO3 (stereo in doubt) turned out to be 0.1

The value of fraction unbound measured for the molecule CC(=O)CC(c1ccccc1)c1c(O)c2ccccc2oc1=O (stereo not shown) turned out to be 0.007

The value of fraction unbound measured for the molecule C[C@@H]1CC[C@H]2[C@@H](C)C(OC(=O)N3CC4(CCNC4=O)C3)O[C@H]3O[C@@]4(C)CC[C@@H]1[C@]32OO4 (stereo partly shown) turned out to be 0.079

* * *

protocol.text: Intravenous and oral pharmacokinetics in mice
Format: in vivo
condition.summary: mouse; IV, male C57BL/6J mice, plasma; read-out: IV VD,ss
measure: Vd (L/kg)
Dear colleague, please return just the value in L/kg, with no unit written.

The value of Vd measured for the compound C[C@@H]1CC[C@H]2[C@@H](C)C(OC(=O)N3CC4(CCNC4=O)C3)O[C@H]3O[C@@]4(C)CC[C@@H]1[C@]32OO4 (stereo partly shown) [PT-30] turned out to be 0.6

* * *

protocol.text: Intravenous and oral pharmacokinetics in mice
Assay type: in vivo
condition.summary: PO, male C57BL/6J mice, plasma
Exercise: for every item that follows, state its recorded PO AUC0-last.
Dear colleague, please return just the value in ng·h/mL, with no unit written.

The value of PO AUC0-last measured for the compound CC1CCC2C(C)C(OC(=O)CC(C)(C)O)OC3OC4(C)CCC1C32OO4 (stereo not shown) [PT-4, DHA 3-hydroxy-3-methylbutanoate] turned out to be 500

The value of PO AUC0-last measured for the compound CC1CCC2C(C)C(OC(=O)N3CC(C)(C(=O)O)C3)OC3OC4(C)CCC1C32OO4 (stereo not shown) turned out to be 3700

The value of PO AUC0-last measured for the compound CC1CCC2C(C)C(OC(=O)N3CC(O)C3)OC3OC4(C)CCC1C32OO4 (stereo not shown) [PT-13, DHA 3-hydroxyazetidine-1-carboxylate] turned out to be 14100

The value of PO AUC0-last measured for the compound CC1CCC2C(C)C(OC(=O)N(C)CCO)OC3OC4(C)CCC1C32OO4 (stereo not shown) [PT-20, DHA (2-hydroxyethyl)(methyl)carbamate] turned out to be 17700

The value of PO AUC0-last measured for the compound CC(CO)C(=O)OC1OC2OC3(C)CCC4C(C)CCC(C1C)C24OO3 (stereo not shown) [PT-1, DHA 3-hydroxy-2-methylpropionate] turned out to be 20

The value of PO AUC0-last measured for the compound CC1CCC2C(C)C(OC(=O)N3CC(C)(N)C3)OC3OC4(C)CCC1C32OO4 (stereo not shown) turned out to be 24300

The value of PO AUC0-last measured for the compound CNC(=O)C1(C)CN(C(=O)O[C@H]2O[C@@H]3O[C@@]4(C)CC[C@H]5[C@H](C)CC[C@@H]([C@H]2C)[C@@]35OO4)C1 turned out to be 48800

* * *

protocol.text: Intravenous and oral pharmacokinetics in mice
Assay type: in vivo
condition.summary: mouse; PO, male C57BL/6J mice, plasma; read-out: PO T1/2 (converted)
measure: half-life (min)
Dear colleague, please return just the value in min, with no unit written.

The value of half-life measured for the molecule C[C@@H]1CC[C@H]2[C@@H](C)C(OC(=O)N3CC4(CCNC4=O)C3)O[C@H]3O[C@@]4(C)CC[C@@H]1[C@]32OO4 (stereo partly shown) turned out to be 20.4

* * *

protocol.text: Solubility of PT-30
Format: physicochemical
condition.summary: aqueous acidic conditions, aqueous buffer
Protocol: PT-30, DHA 5-oxo-2,6-diazaspiro[3.4]octane-2-carboxylate, (3R,5aS,6R,8aS,9R,12S,12aR)-decahydro-3,6,9-trimethyl-3,12-epoxy-12H-pyrano[4,3-j]-1,2-benzodioxepin-10-yl 5-oxo-2,6-diazaspiro[3.4]octane-2-carboxylate, was a white crystalline solid as prepared. […] PT-30 had low solubility (<0.1 mg/mL) in aqueous acidic conditions and in simulated gastric fluid, and a solubility of about 0.7 mg/mL in fasted-state and fed-state simulated intestinal fluids.
measure: solubility

The value of solubility measured for the molecule C[C@@H]1CC[C@H]2[C@@H](C)C(OC(=O)N3CC4(CCNC4=O)C3)O[C@H]3O[C@@]4(C)CC[C@@H]1[C@]32OO4 (stereo partly shown) [PT-30] turned out to be < 100 µg/mL
